- tested-target: T1, mouse GPRC5D (mouse, UniProt Q9JIL6 1-344)
- T1 construct: whole, on cells; HEK293T-mGPRC5D cells; also called mGPRC5D; murine GPRC5D
- T1 sequence (looked up): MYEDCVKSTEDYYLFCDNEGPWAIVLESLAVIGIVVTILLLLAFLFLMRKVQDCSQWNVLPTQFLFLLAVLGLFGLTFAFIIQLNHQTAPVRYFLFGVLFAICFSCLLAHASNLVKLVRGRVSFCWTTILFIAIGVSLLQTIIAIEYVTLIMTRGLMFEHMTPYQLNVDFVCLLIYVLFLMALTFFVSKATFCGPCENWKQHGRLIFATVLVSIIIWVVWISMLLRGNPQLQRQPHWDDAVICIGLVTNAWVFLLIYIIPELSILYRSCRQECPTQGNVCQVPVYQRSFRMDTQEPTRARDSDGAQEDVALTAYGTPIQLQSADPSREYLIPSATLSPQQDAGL
- protocol-notes: FACS, HEK293T-mGPRC5D cells; also: test concentration or dose not given here

| binder | MFI |
| --- | --- |
| 15D6G2 (antibody, V domains shown, Mouse monoclonal antibody from hybridoma subclone) VH: EVQLVESGGDLVKPGGYLRLSCAASGFTFSSHGMSWVRQTPDKRLEWVATISSGGRNTYYPDSVKGRFTISRDNAKNILYLQMSSLKSEDTAMFYCTRHSGDAMDYWGQGTSVTVSS VL: DILLTQSPAILSVSPGERVSFSCRASQSIGTNIHWYQQRTNGSPRLLIKYASESISGIPSRFSGSGSGTDFTLSINSVESEDIADYYCQQSKSWPTFGGGTKLEIK | 150 |
| 28H9C12 (antibody, V domains shown, Mouse monoclonal antibody from hybridoma subclone; also called 281H9C12) VH: EVQLVESGGGLVKPGGSLKLSCAASGFTFSDYGMHWVRQAPEKGLEWVAYISSGSSTIYYADTVKGRFTISRDNAKNTLFLQMTSLRSEDTAIYYCVRRPWYFDVWGTGTTVTVSS VL: DVLMTQTPLSLPVSLGDQASISCRSSQSIVHSNGNTYLQWYLQKPGQSPKLLIYKVSNRFSGVPDRFSGSGSGTDFTLKISRLEAEDLGVYYCFQGSHVPFTFGSGTKLEIK | 121 |
| 12G12C2 (antibody, V domains shown, Mouse monoclonal antibody from hybridoma subclone) VH: QIQLVQSGPELKMPGETVKISCKASGYTFTTYGLSWVKQAPGKGLKWMGWINTFSGVPIYADDFKGRFAFSLETSASTAYLQINNLKNEDTATYFCARWGIRQRGDYWGQGATLTVSS VL: QIVLTQSPAIMSASPGEKVTMTCSASSSVSYLHWYQQKSGTSPKRWIYDTSKLASGVPVRFSGSGSETSYSLTISSMEAEDAATYYCQQWTSNPPTFGGGTKLEIK | 7080 |
